System: KRAS-mutant PDC tumor spheroid with HUVEC/MSC, viability;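 also: spheroids exposed to agents for seven days before reading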
Assay: Anticancer human tumor 327498-153-R-J2-PDC patient-derived uterine carcinosarcoma cell line growth inhibition [KRAS2]; active = viability on the fitted dose curve at most 10% of control; inactive = the rest
Conditions: second compound 10 µM; first compound 0.0001 µM
Description: Multicellular complex tumor spheroid response to RAS pathway inhibitors in combination with a targeted agents in patient-derived cell lines with oncogenic KRAS variants from multiple cancer types A high-throughput screen of multi-cell type tumor spheroids was designed to identify active combinations of targeted small molecules and KRAS pathway inhibitors. […] Compounds. […] If the clinical Cmax for an agent had not been determined, the highest concentration tested was 10 microM. […]
Write down one outcome, taken from active, inactive

QUERY: How was CC(=O)Nc1cccc(-n2c(=O)n(C3CC3)c(=O)c3c(Nc4ccc(I)cc4F)n(C)c(=O)c(C)c32)c1 + CC1OCC2(CCN(c3cnc(Sc4ccnc(N)c4Cl)c(N)n3)CC2)C1N classified in this test?
RESULT: inactive

QUERY: Please share the test call associated with CC(=O)Nc1cccc(-n2c(=O)n(C3CC3)c(=O)c3c(Nc4ccc(I)cc4F)n(C)c(=O)c(C)c32)c1 + CNCc1ccccc1-c1csc(C(C)Nc2nc(C)nc3cc(OC)c(OC)cc23)c1 .
RESULT: active

QUERY: Recorded test outcome, item CC(=O)Nc1cccc(-n2c(=O)n(C3CC3)c(=O)c3c(Nc4ccc(I)cc4F)n(C)c(=O)c(C)c32)c1 + COc1cc2nc(C)nc(NC(C)c3cc(N)cc(C(F)(F)F)c3)c2cc1OC1CCOC1
RESULT: inactive

QUERY: What outcome does the record of this test show for CC(=O)Nc1cccc(-n2c(=O)n(C3CC3)c(=O)c3c(Nc4ccc(I)cc4F)n(C)c(=O)c(C)c32)c1 + C=CC(=O)N1CCN(c2nc(=O)n(-c3c(C)ccnc3C(C)C)c3nc(-c4c(O)cccc4F)c(F)cc23)C(C)C1 ?
RESULT: inactive
